The reported numbers originate from ChEMBL document CHEMBL3988442.

- target system: Chromo domain-containing protein 1 (Saccharomyces cerevisiae (strain ATCC 204508 / S288c) (Baker's yeast)) (UniProt P32657)
- Sequence (P32657 whole entry, the tested form may be a part): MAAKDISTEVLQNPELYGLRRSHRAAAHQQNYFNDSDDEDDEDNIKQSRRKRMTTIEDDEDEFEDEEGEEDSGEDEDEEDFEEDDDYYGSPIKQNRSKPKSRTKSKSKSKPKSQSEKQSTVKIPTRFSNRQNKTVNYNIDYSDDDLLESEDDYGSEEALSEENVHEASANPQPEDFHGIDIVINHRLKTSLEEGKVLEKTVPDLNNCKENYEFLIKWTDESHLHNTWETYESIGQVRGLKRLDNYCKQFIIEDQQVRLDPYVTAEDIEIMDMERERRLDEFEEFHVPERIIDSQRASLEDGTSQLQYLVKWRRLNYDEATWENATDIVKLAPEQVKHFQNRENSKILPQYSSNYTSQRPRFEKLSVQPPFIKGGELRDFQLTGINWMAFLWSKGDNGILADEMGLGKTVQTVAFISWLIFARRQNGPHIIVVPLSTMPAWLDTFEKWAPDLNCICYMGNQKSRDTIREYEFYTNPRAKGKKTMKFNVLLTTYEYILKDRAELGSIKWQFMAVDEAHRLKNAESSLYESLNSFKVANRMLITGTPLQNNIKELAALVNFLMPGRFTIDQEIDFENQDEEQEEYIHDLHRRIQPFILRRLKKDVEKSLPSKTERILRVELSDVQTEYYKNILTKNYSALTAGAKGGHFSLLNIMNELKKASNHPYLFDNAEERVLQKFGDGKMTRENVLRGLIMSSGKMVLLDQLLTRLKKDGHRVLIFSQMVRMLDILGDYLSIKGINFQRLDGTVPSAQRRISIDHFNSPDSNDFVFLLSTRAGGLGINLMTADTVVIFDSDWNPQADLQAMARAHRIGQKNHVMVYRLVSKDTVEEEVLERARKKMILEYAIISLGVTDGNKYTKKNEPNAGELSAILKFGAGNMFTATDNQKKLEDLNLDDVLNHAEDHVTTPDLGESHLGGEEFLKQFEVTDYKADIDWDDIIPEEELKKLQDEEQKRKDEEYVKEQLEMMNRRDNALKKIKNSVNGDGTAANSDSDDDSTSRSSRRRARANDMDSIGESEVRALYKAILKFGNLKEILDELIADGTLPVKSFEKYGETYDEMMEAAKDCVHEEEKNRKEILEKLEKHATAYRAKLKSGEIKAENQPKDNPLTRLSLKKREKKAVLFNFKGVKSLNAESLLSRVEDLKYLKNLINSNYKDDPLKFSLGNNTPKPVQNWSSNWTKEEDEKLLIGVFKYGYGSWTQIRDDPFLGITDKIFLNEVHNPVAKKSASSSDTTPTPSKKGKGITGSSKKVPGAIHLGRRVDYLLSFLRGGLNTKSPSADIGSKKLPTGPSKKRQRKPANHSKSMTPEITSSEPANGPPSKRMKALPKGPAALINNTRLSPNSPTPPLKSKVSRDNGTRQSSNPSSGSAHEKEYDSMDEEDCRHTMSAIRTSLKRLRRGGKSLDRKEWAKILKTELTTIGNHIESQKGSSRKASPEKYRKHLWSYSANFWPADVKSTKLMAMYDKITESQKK
- test name: ScCHD-1 Enzyme Inhibition Assay; also: in the data most compounds retested in dose-response had high values
- Format: functional
- Design: scale not given: direction of the effect not stated beside the values
- test context: 30 µM
Please go through the items and note down their Percent Effect.
Numbers only, in %.

{"compound": "CC(C)NC(=O)Nc1ccc(CNCc2cccc(OC(F)F)c2)cc1", "numeric result": -10.9}

Please go through the list and note Percent Effect for each compound.
1. CC(=O)NC(C)c1ccc(OCC2CC2)c(F)c1 (stereo not given)
2. CC(C)c1ccc(C(O)Cn2c(=O)c(C#N)cn(C3CC3)c2=O)cc1 (stereo not given)
3. Cc1cc(C)n(CC2CCCN2C(=O)c2ccc3[nH]nnc3c2)n1 (stereo not given)
4. O=C(c1ccc[nH]1)N1CCCC(c2cc(C(F)(F)F)[nH]n2)C1 (stereo not given)

Result ::
-7.19
-2.6
-3.11
-3.1

* * *

- target system: AMP-activated protein kinase, AMPK (Homo sapiens) (UniProt P54646+O43741+P54619+Q9UGJ0+Q9Y478+Q13131+Q9UGI9)
- test name: AMP-dependent Kinase enzyme assay. An in vitro enzyme assay that detects ADP turnover that is directly proportional to AMPK activity. This uses naive AMPK that is activated during the assay with MK-8722
- Type: functional
- Parameters: scale not given: direction of the effect not stated beside the values
- test context: 30 µM
measure: Percent Effect (%)
Give bare numbers, in %.

As a guide, the following entries are already answered.
{"compound": "CCNC(=O)c1ncn2c1CN(C)S(=O)(=O)c1ccccc1-2", "Percent Effect (%)": 2.65}
{"compound": "CCn1cnnc1CNC(=O)N1CCN(c2nc(C)c(C)s2)CC1", "Percent Effect (%)": -7.32}
{"compound": "O=C(c1nn(-c2ccccc2F)cc1O)N1CCCC1", "Percent Effect (%)": -2.23}
{"compound": "CCOC(=O)N1CCN(C(=O)CCn2ccc3c(OC)cccc32)CC1", "Percent Effect (%)": -4.91}
{"compound": "CC(Oc1ccccc1C(F)(F)F)C(=O)NS(=O)(=O)C(C)C (stereo unspecified)", "Percent Effect (%)": 5.54}

Query :: I have this compound here, `Cc1cccc(NC2CCN(C(=O)Nc3cc(F)cc(F)c3)CC2)n1` , and I need its recorded Percent Effect.
Result :: -1.53

* * *

- target system: Ubiquitin-activating enzyme e1, putative (Leishmania donovani (strain BPK282A1))
- test name: Leishmania donovani Ubiquitin Activating Enzyme (LdE1)
- Format: functional
- Parameters: scale not given: direction of the effect not stated beside the values
- test context: 30 µM
Entries with a potency or affinity are not part of this list.
I'd be grateful if you could share measured Percent Effect for these entries.
Numbers only, in %.

Worked examples, 4 compounds total:
{"compound": "COc1cccc(C(=O)N2CCCC(c3cc(C)[nH]n3)C2)c1OC (centres undefined)", "measure": "Percent Effect", "numeric result": 10.8}
{"compound": "c1ccc(Cn2cc3c(n2)C(COCC2CC2)OCC3)nc1 (centres undefined)", "measure": "Percent Effect", "numeric result": 10.4}
{"compound": "CCc1nccn1C1CCCN(C(=O)c2cnn(C)c2C2CC2)C1 (centres undefined)", "measure": "Percent Effect", "numeric result": 8.11}
{"compound": "CN(CCN1CCOCC1)C(=O)CCc1cccc(Cl)c1", "measure": "Percent Effect", "numeric result": 13.2}

Items follow; give Percent Effect for each.
1. Cc1ccc(-c2nc(CN3CCCC3Cn3cc(C)cn3)no2)cc1 (centres undefined)
2. O=C(Cc1c[nH]c2ccccc12)N1CCC(Nc2cccnn2)CC1

Result ::
1. 5.33
2. 15.6

* * *

- Species: Homo sapiens
- test name: To identify inhibition of the IFN signalling (Jak-Stat) pathway via expression of an eGFP reporter gene under the control of an IFN-stimulated response element (ISRE) containing MxA promoter.
- Assay type: functional
- Design: scale not given: direction of the effect not stated beside the values
- test context: 30 µM
Kindly state Percent Effect for each of the entries shown.
Numbers only, in %.

# return Percent Effect for each item in the list
1. CCn1cc(N2Cc3nc(N4CCOCC4)ncc3C2=O)cn1
2. c1cnnc(N2CCCC(NCc3cn4ccccc4n3)C2)c1 (stereo unspecified)
3. CCN(C)c1ncnc2c1CCN(Cc1ccoc1)CC2
4. Cn1ccnc1C(NCc1csc(Br)c1)c1ccccc1 (stereo unspecified)
5. CC(NC(=O)c1cccs1)C(=O)NCc1ccccc1CN1CCCC1 (stereo unspecified)
6. Cc1csc2c(=O)n3c(nc12)CCN(C(=O)c1cccnc1)CC3

Result ::
1: -2.82; 2: 17; 3: -6.57; 4: 12.7; 5: 5.06; 6: 4.21

* * *

- target system: Arginase-2, mitochondrial (Homo sapiens)
- test name: in vitro enzyme assay to detect the production of urea directly proportional to the activity of Arginase II; also: in the data most compounds retested in dose-response had high values
- Assay type: functional
- Parameters: scale not given: direction of the effect not stated beside the values
- test context: 33.3 µM
measure: Percent Effect
A bare number is not enough; add the unit after it.

Known Percent Effect results, listed for orientation:
{"molecule": "c1ccc(CN2CCc3ncnc(-c4ccsc4)c3CC2)nc1", "Percent Effect": "5.41%"}
{"molecule": "COc1ccc(C)cc1C(C)NC(=O)NCCCn1cncn1 (stereo not given)", "Percent Effect": "1.33%"}
{"molecule": "Cc1ccc(NC(=O)C2CSCN2C(=O)c2cnccn2)c(C)c1 (stereo not given)", "Percent Effect": "6.15%"}

Batch: Percent Effect for all items listed.
1. CN1CCC/C1=N\S(=O)(=O)c1ccc(NC(=O)c2ccc(F)cc2)cc1
2. CCNC(=O)N1CCN(C(=O)c2cc(Cl)cc3cccnc23)CC1

Result ::
28.5%
3.28%

Give measured Percent Effect for every item shown.
1. Cc1nc(CN2CCC(N(C)Cc3noc(C4CC4)n3)C2)oc1C (stereo not given)
2. O=c1c(-c2ccnc(NC3CCOCC3)n2)cnc2sc(Cl)cn12
3. CCOCC1CN(C(=O)c2cscn2)Cc2nnn(CC3CC3)c21 (stereo not given)
4. CC(NC(=O)N1CCN(c2ccccc2)CC1)c1nncn1C (stereo not given)
5. CC(C)NC(=O)[C@@H](NC(=O)N1CCN(c2ccc(Cl)cc2)CC1)C(C)C

Result ::
["0.205%", "-2.66%", "4.14%", "7.54%", "-3.85%"]

* * *

Can you tell me Percent Effect for the items I'm about to list?
- Test system: Trypanosoma cruzi
- test name: Trypanosoma cruzi phosphomannomutase and mannose-1-phosphate guanylyltransferase assay
- Assay type: functional
- Set-up: scale not given: direction of the effect not stated beside the values
- test context: 10 µM

Worked cases, Percent Effect given:
{"molecule": "Cc1c[nH]c(CN(C)C(=O)c2cccc(CCC(C)(C)O)c2)n1", "Percent Effect": "5.16%"}
{"molecule": "CN(C)CC(=O)N1CCC2(CCN(Cc3ccccn3)C2=O)C1 (stereo unspecified)", "Percent Effect": "-2.63%"}
{"molecule": "O=C(NCc1nnc2n1CCCC2)N(Cc1ccccc1F)C1CC1", "Percent Effect": "-2.12%"}
{"molecule": "COc1ncc(-c2nccn2CCN(C)C)cn1", "Percent Effect": "-0.965%"}
{"molecule": "CCc1nccn1C1CCCN(C(=O)c2csc(NC(C)=O)n2)C1 (stereo unspecified)", "Percent Effect": "-2.98%"}

Parameters: items (list). Returns: Percent Effect for each item.
1. COc1ncccc1NC(=O)c1cccc(C)n1
2. CCc1nc(CN2CCN(C(=O)CCc3ccccc3)CC2)cs1
3. NC(=O)N1CCC2(CC1)CN(c1ccsc1)C(=O)CO2
4. Cc1ccc(NC(=O)CNc2cccc3c2CCCC3)c(Br)c1
5. Cn1cc(CC(=O)N2CCC(Nc3cccnn3)CC2)c2ccccc21

Result ::
["1.41%", "-1.95%", "-7.68%", "1.07%", "3.73%"]

Record Percent Effect per entry; entries follow.
1. CC(C)n1[nH]c(=O)c2c1NC(=O)CC2c1ccc2ncccc2c1 (stereo unspecified)
2. CCc1nccn1C1CCCN(C(=O)c2cnn(C)c2C2CC2)C1 (stereo unspecified)
3. O=C(C1=CCCCC1)N1CCC2(CC1)COC(COc1ccccn1)C2 (stereo unspecified)
4. CN(Cc1cnn(-c2ccccc2)n1)CC1CCCN1c1cccnn1 (stereo unspecified)
5. COc1cccc(-c2nccnc2C2CCN(C(C)=O)CC2)c1
6. Cn1ccc2ccc(C(=O)N3CCN(C(=O)N4CCOCC4)CC3)cc21
7. CCN1C(=O)CCCC12CCCN(C(=O)c1cnccn1)C2 (stereo unspecified)

Result ::
1: -2.62%; 2: -6.51%; 3: -0.292%; 4: 5.7%; 5: -0.593%; 6: 9.6%; 7: -0.75%

Provide each entry's Percent Effect from the list below.
1. CCN1CCC(NC(=O)CN2CCCC2Cn2cncn2)CC1 (stereo unspecified)
2. Cc1nc(C2CCCN(C(=O)c3ccco3)C2)no1 (stereo unspecified)
3. COc1c(C2CCCN2C(=O)c2c[nH]c3ncccc23)c(C)nn1C (stereo unspecified)
4. CN(C)CC(=O)N1Cc2nc(C(=O)NCc3ccncc3)oc2C1
5. O=C1CCCc2nccc(-c3ccccc3)c21

Result ::
1: -5.64%; 2: -0.308%; 3: -5.41%; 4: 3.86%; 5: 2.56%

Hello, I would appreciate it if you could give Percent Effect for each entry below.
1. N#Cc1ccc(OCCN2CCc3c(ncn3C3CC3)C2)cc1
2. COc1ncccc1CNC(=O)NCCNC(=O)c1ccco1
3. CCn1cnnc1CNC(=O)N1CCN(c2nc(C)c(C)s2)CC1
4. COC[C@@H]1CC[C@H]2[C@H](CCN2S(=O)(=O)c2cccc(C)c2)O1
5. Cc1[nH]c2ccccc2c1-c1ccnc(NCCN2CCOCC2)n1
6. COCC(O)CNC(=O)c1cnc(-c2ccccc2)nc1O (stereo unspecified)
7. CC(=O)N1CCN(C(=O)CN2CCc3c(ncn3C3CC3)C2)CC1
8. Cc1cccnc1CN(C)CC1(O)CCCN(CC2CCCCC2)C1=O (stereo unspecified)

Result ::
1. -1.31%
2. 6.83%
3. 4.68%
4. -4.38%
5. -7.83%
6. 3.28%
7. 1.33%
8. 6.69%
